Reference source: a melting point compilation (Tetko et al.; mined from patent text by program, amines drawn as free bases though some values may be those of a salt)

Reported values of melting point for individual entries
RESULT_TYPE: melting point

* O=[N+]([O-])c1ccc(Br)cc1-c1cc(-c2cccc(Br)c2)no1 | 179 to 180 °C
* CCCc1nn(-c2ccc(C(F)(F)F)cn2)cc1CCCOc1cc(CC(=O)O)ccc1F | 88 to 89 °C
* CCCCn1cc(CCN(C)C)c2c(OCc3ccccc3)cc(F)cc21 | 86 to 89 °C
* O=c1nc(-c2ccc(O)cc2)oc2ccccc12 | 273 to 275 °C
* COc1ccc(-c2cc(C#N)c[nH]2)c(OC)c1 | 129 to 130 °C
* CS(=O)(=O)c1nnc(-c2ccnc(Nc3cccc(C(F)(F)F)c3)c2)o1 | 105 to 106 °C
* Nc1ccc(N2CCN(CC(O)(Cn3cncn3)c3ccc(Cl)cc3Cl)CC2)cc1 (stereo not given) | 60 °C
* CCCCN1CCCN(c2ccccc2)c2cc(Cl)ccc21 | 159 to 161 °C
* CC(C)CC(=O)C(=O)NCC(=O)c1ccccc1 | 193 to 195 °C
* CC(C)OC(=O)CS(=O)(=O)C=C1SC=CS1 | 127 to 128 °C
* COC(=O)c1nc2ccc(Cl)cc2n1Cc1ccccc1 | 184 to 186 °C
* O=C(O)CNC[C@H]1O[C@H](c2ccccc2Cl)c2cc(Cl)ccc2N(Cc2ccccc2)C1=O (relative stereo) | 224 to 226 °C
* COc1ccc(-c2c(C(C)=O)c(CBr)nc3cc(OC)c(OC)cc23)cc1OC | 181 to 182 °C
* C[C@H](C(O)C(c1ccc(F)cc1F)n1cncn1)S(=O)(=O)[C@@H]1CNCCN1c1ccccc1 (stereo not given in full) | 135 to 137 °C
* O=C=Nc1c2c(cc3c1CCC3)CCC2 | 40 to 41 °C
* CNC(=O)c1ccsc1Nc1nc(Nc2ccc3c(c2)CCN(CCOC)CC3)ncc1Cl | 217 to 221 °C
* CC1(C)SC(C)(C)N(C(=O)COc2ccc(Cl)cc2)C1C(=O)O (stereo not given) | 146 to 147 °C
* COC(=O)c1cc(C(C)=O)c(C(F)(F)F)cc1N | 118 to 121 °C
* Cn1ncc2c1-c1c(Oc3ccc(N)cc3)sc(C(N)=O)c1CC2 | 214 to 216 °C
* CCCCc1ncc(CO)c(NCc2ccc(-c3ccccc3)c(-c3nnnn3C(c3ccccc3)(c3ccccc3)c3ccccc3)c2)n1 | 126 to 129 °C

###

RESULT_TYPE: melting point

• CC(C)C[C@H](NC(=O)OCc1ccccc1)C(=O)N[C@@H](Cc1ccccc1)C(=O)CSCc1ccc(Cl)s1 = 105 to 107 °C
• COCCN(C)C(=O)Nc1c(C(=O)c2ccccc2)[nH]c2cc(Cl)ccc12 = 66 to 72 °C
• Cc1nc(-c2cn(CC3CC3)nn2)sc1C(=O)NCc1cccnc1 = 140 to 141 °C
• S=C(NC1CC1)N1CCc2[nH]cnc2C1 = 185 °C
• O=C(O)c1ccc(OCC2CC(=O)N(c3ccc(OC4CCCCC4O)cc3)C2)cc1 (stereo not given) = 203 to 208 °C

###

Reported values of melting point for individual entries
RESULT_TYPE: melting point

• O=C1Nc2ccccc2C1=Cc1ccccn1 = 204 to 205 °C
• CCCCC(=O)Nc1ccc(N)cc1Cl = 96.5 to 99 °C
• CCOc1ccc(C2=NN(C(=O)c3cccnc3)CC2)cc1 = 124 to 125 °C
• CSc1ccc(C2=CC(=O)C(C)(C)O2)cc1 = 107 to 109 °C
• CCC(=O)Oc1ccc(C(=O)Nc2ccc3cc(CN4CCCC4)cnc3c2C)cc1 = 146 to 147 °C
• CCOC(=O)/C=C(C)/C=C/C=C(C)/C=C/c1c(C)cc(OC(F)(F)F)c(C)c1C = 47 to 49 °C
• CC1CC(=O)NN=C1c1ccc2c(c1)N(CC(=O)N1CCN(CCO)CC1)CS2=O (stereo not given) = 231 to 233 °C
• CN1CCNC(=O)N1c1cc(Cl)cc(Cl)c1 = 150 to 151 °C
• CN1CCC(N2CC=CC3=C2C(O)c2ccc(Cl)cc2SC3)CC1 (stereo not given) = 158 to 160 °C
• O=C(Cn1c(-c2cccnc2)ncc(NC(=O)OCc2ccccc2)c1=O)NC(Cc1ccccc1)C(=O)C(F)(F)F (stereo not given) = 88 to 91 °C

###

RESULT_TYPE: melting point

- CC1Cc2cc3c(cc2C(c2ccc([N+](=O)[O-])cc2)=NN1)OCO3 (stereo not given): 162 to 164 °C
- CSc1nc(=O)n(Cc2ccccc2)c2ncn(COCc3ccccc3)c12: 194 to 195 °C
- N#CCOc1ccc2cc(-c3cnc(Cc4ccccc4)o3)ccc2c1: 184 to 187 °C
- CC1CCC(Nc2ccc(Br)cc2)c2ncc(C(=O)O)c(=O)n21 (single isomer, unassigned; (-)): 210 to 211 °C
- Cc1cccc(Nc2nnc(Cc3ccncc3)c3ccccc23)c1: 141 to 143 °C
- O=C(Cc1ccsc1)N1C(=O)OC[C@@H]1Cc1ccccc1: 80 to 81 °C
- NC(=NO)C1CCN(C(=O)OCc2ccccc2)CC1: 111 to 113 °C
- CSc1ccc(CN2CC(C)(C)C(Oc3ccc(C#N)c(C(F)(F)F)c3)C2=O)cc1 (stereo not given): 44.1 to 44.8 °C
- O=C(Nc1ccc2c(c1)CCN(C(=O)OCc1ccccc1)C2)OCc1ccccc1: 115 to 116 °C
- C/C(=C(\C#N)C(N)=S)N1CCCN(c2ccccc2Cl)CC1: 123 to 124 °C

###

Reported values of melting point for individual entries
RESULT_TYPE: melting point

* COC(=O)C=Cc1nc(C(=O)CCCC(=O)OC)ccc1OC | 87 to 89 °C
* CCCc1c(O[C@@H]2CCC[C@H](Sc3ccc(C(=O)CCC(=O)O)cc3)C2)ccc(C(C)=O)c1O (relative stereo) | 101 to 103 °C
* O=C(O)c1cn(CC2CCCC2)c2cc(Cl)ccc12 | 181 to 184 °C
* CNc1nc(SC)ncc1C=O | 98 to 100 °C
* C[C@@]1(C=O)S[C@@H]2CC(=O)N2[C@H]1C(=O)OC(c1ccccc1)c1ccccc1 | 112 to 113 °C
* CC(C)(C)OC(=O)NCC(COC(C(F)(F)F)(C(F)(F)F)C(F)(F)F)(COC(C(F)(F)F)(C(F)(F)F)C(F)(F)F)C(=O)O | 128 to 130 °C
* Nc1ccc(N2CCOC2=O)c(Cl)c1 | 151 to 153 °C
* O=C1c2ccccc2C(=O)N1CC(=O)N1c2ccccc2N(Cc2ccccc2)C(=O)CC1c1ccccc1 (stereo not given) | 127 to 128 °C
* C#CCOC(=O)Oc1ccc2ccc(OC(=O)OCC#C)cc2c1 | 94 to 96 °C
* COc1ccc(CNC(=O)c2c[nH]c3ccc(N4CCCC4)nc3c2=O)cc1 | 270 to 272 °C

###

Reported values of melting point for individual entries
RESULT_TYPE: melting point

* CN(C)c1ccc(C=Cc2ccc(S(=O)(=O)CCCCCCCCCCCO)cc2)cc1 | 153 to 155 °C
* CON=c1cc(C)c2ccccc2[nH]c1=O | 190 to 193 °C
* NS(=O)(=O)c1cccc(NC(=O)c2cnn3c(C(F)(F)F)cc(-c4ccc(C(F)(F)F)cc4)nc23)c1 | 155 °C
* C/C(=C(\C#N)C(N)=S)N1CC[C@@H]2CCCC[C@H]2C1 (relative stereo) | 173 to 175 °C
* CSc1ccc(N=Cc2ccc(F)cc2)cc1 | 157 to 158 °C
* CCCCNC(=O)NS(=O)(=O)c1ccc(CCNC(=O)N2CCCCC2=O)cc1 | 156 to 158 °C
* CCOC(=O)c1cn(Cc2ccccc2)nc1OCc1ccc(OCc2nc(-c3ccco3)oc2C)c(OCC)c1 | 121 to 122 °C
* O=Cc1ccc(Oc2ccc(F)cc2)cc1 | 69 to 73 °C
* CCCCCCCCCCc1ccc(CCC(N)(CO)CCO)cc1 (centres undefined) | 69 to 72 °C
* Cc1cc(Oc2ncc(C(F)(F)F)cc2Cl)nn1C(=O)N(C(C)C)C(C)C | 58 to 60 °C
* CCNC(=O)Nc1ccc(-c2sc3c(c2CN(C)C(C)C)c(=O)n(-c2ccccc2)c(=O)n3Cc2c(F)cccc2F)cc1 | 208 to 210 °C
* O=c1cc(-c2ccoc2)c2ccc(Sc3cc(F)cc(-c4cccnc4)c3)cc2o1 | 169 to 170 °C
* CCCCCc1cc2c(nc(O)n2[C@@H](C)c2ccccc2)c(N)n1 | 147 to 148 °C
* CCc1ccc2c(c1)C(O)Cc1ccc(F)cc1S2 (centres undefined) | 97 °C
* COc1ccccc1NC(=O)Nc1ccc(CC(=O)O)cc1 | 165 to 168 °C
* O=S1(=O)c2ccccc2-n2c(Cl)nnc21 | 218 to 220 °C
* Cc1c(SCCCSc2ncccn2)ccnc1CNc1cnc2ccccc2c1 | 132 to 133 °C
* CN1C(=O)C(NC(=O)CC23CC4CC(CC(C)(C4)C2)C3)N=C(c2ccccc2)c2ccccc21 (racemic) | 195 to 196 °C
* Cc1nc2c(n1C(=O)OC(C)(C)C)CCCC2=O | 126 °C
* O=C(Cc1c(-c2ccccc2)c2cc(CSc3ccccn3)c(Cl)cc2oc1=O)Nc1ccc(F)cc1C(F)(F)F | 195 to 196 °C
* Cc1cc(C)c(NC(=O)N(Cc2cc3ccccc3c3ccccc23)C2CCCCC2)c(C)c1 | 125 to 128 °C
* COC(CN1CCN(c2cccc(-n3cnc4cc(C(C)=O)ccc43)c2)CC1)=NOC(C)C | 120 to 121 °C
* O=C1NCN(c2ccccc2)C12CCN(CC1CCc3ccc(F)cc3C1O)CC2 (centres undefined) | 210 to 212 °C
* CC1(C)CCC(C)(C)C2=C1CC(C(=O)O)C2 | 125 to 129 °C
* CCC(=O)CCCCCCC(=O)c1ccc(OCc2ccccc2)c(OCc2ccccc2)c1 | 67 to 68 °C
* CCCCN(Cc1ccc(-c2ccccc2-c2nnn[nH]2)cc1)c1nnn(CC(C)C)c1C(=O)O | 105 to 106 °C
* COc1cc(C2(OC)CCOCC2)ccc1OCc1ccc2ccccc2c1 | 129 °C
* CN(C)S(=O)(=O)c1ccccc1-c1ccc2c(c1)S(=O)(=O)NC(C1CCCCC1)N2 (centres undefined) | 290 to 300 °C
* CC(/C=C/C=C(\C)C1=Cc2cc(C(C)(C)C)cc(C)c2OC1)=C\C(=O)O | 227 to 228 °C
* CN(CCOc1ccc(CON=C(C(=O)O)c2ccccc2)cc1)c1ccccn1 | 93 to 94 °C
* COc1ccc(S(=O)(=O)/C(=C/C(=O)NO)CCCCc2ccccc2)cc1OC | 123 to 126 °C
* O=C1C(=O)c2ccc(Br)cc2C2=C1SCC1(CCN(CC(O)COc3ccc(Cl)cc3)CC1)O2 (centres undefined) | 150 to 152 °C
* Cc1cc(-c2cccc([N+](=O)[O-])c2)nnc1N(C)N | 173 to 174 °C
* COC(=C(C#N)C(=O)C(C)(C)C)c1ccc(Cl)cc1[N+](=O)[O-] | 130 to 131 °C
* CC(C)Sc1sc(-c2nnn(C)n2)c2c1C(=O)CC(C)(C)C2 | 180 to 183 °C
* Oc1ccc(-c2cocn2)cc1 | 148 °C
* Nc1ccnn1-c1c(F)c(F)c(C(F)(F)F)c(F)c1F | 103 to 104 °C
* Cc1cc2cc(/C(=C\CO)c3ccc(I)cc3)ccc2o1 | 103 to 113 °C
* O=C1Nc2cccc(-c3cccc4c3oc3ccccc34)c2C12COc1cc3c(cc12)OCO3 (centres undefined) | > 230 °C
